molecular target: T1, human SIRPαBIT, extracellular domain 1-370, Avi-FXa-Fc tag (human, biotinylated); assay: SPR, captured biotinylated antigen
T1 construct: also called huSIRPαBIT; v1
T1 sequence (chain, as listed by the source limits assumed): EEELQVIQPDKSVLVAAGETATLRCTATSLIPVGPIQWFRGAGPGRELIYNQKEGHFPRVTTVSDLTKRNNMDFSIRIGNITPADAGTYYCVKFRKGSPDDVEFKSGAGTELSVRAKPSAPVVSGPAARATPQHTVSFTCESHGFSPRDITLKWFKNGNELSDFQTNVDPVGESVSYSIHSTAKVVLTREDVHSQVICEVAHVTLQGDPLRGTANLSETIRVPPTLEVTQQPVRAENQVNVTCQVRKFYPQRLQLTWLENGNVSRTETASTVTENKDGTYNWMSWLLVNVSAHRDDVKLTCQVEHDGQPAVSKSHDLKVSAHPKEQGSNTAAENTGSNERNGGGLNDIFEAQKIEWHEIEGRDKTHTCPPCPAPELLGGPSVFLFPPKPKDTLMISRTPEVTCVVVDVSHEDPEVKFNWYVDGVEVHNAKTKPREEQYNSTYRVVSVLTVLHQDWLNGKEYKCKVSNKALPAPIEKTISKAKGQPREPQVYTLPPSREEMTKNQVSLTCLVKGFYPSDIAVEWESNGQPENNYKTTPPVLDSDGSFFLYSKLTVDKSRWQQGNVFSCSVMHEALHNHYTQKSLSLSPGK
metric: pKd
For clarity, pKd is expressed as the negative log10 of concentration in mol/L.

{"binder": "HEFLB (humanized IgG4) (antibody, V domains shown, humanized IgG4 of WO 2017/178653; also called humanized HEFLB) VH: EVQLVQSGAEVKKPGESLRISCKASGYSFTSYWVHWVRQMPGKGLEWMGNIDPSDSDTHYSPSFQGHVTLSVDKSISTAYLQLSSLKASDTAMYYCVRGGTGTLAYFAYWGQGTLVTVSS VL: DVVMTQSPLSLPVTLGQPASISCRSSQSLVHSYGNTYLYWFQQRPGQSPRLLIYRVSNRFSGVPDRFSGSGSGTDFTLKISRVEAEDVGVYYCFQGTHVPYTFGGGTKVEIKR", "metric": "pKd", "endpoint.result": 10.89}

Alright, here's another binder for you.
# input Return value of pKd for input humanized anti-SIRPα antibody 8 (antibody, human IgG1, kappa, L234A L235A, V domains shown, human IgG1 LALA, kappa; also called mAb 8) VH: RQLVESGGGLVQPGGSLRLSCAASGFSLSSHGISWVRQAPGKGLEYIGTIGTGVITYYASWAKGRFTGSKTSSTAYLQMTSLRAEDTAVYYCARGSAWNDPFDYWGQGTLVTVSS VL: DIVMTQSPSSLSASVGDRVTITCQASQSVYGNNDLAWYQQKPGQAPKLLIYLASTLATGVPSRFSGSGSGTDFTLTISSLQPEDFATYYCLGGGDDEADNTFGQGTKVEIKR , no commentary.
# output 9.82
